The measurements presented in this section are drawn from patent US8258295B2.

Biological target: TNFα (Homo sapiens, UniProt P01375)
Sequence (P01375 77-233 limits assumed, species assumed): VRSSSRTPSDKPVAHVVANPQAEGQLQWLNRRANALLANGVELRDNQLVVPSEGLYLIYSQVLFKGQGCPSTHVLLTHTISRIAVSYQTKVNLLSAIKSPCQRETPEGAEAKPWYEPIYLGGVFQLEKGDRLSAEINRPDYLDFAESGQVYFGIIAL
Experiment: TNFα-induced apoptosis in WEHI-13VAR cell line
Format: cell-based
Conditions: 1 × 10^−5 M
MEASURED_METRIC: inhibition at 10 µM

Recorded results for 2 compounds are shown here.
// sample CN(C)S(=O)(=O)c1ccc(CCNc2nc(NCCCCCN)nc(Nc3cccc(F)c3)n2)cc1 [Compound III] , its inhibition at 10 µM was 52%

// sample NCCCCCNc1nc(NCC(O)c2ccc(O)cc2)nc(Nc2ccc(F)cc2)n1 (stereo not drawn) [Compound XI] , its inhibition at 10 µM was 14.6%

New cases:
// sample NCCCCCNc1nc(NCCc2ccc(S(N)(=O)=O)cc2)nc(Nc2cccc(F)c2)n1 [Compound II] , its inhibition at 10 µM was 64.2%

---

Let's look at some compounds and their measured inhibition at 5 µM.
Target: UniProtKB P01375
Assay: TNFα-induced apoptosis in WEHI-13VAR cell line
Format: cell-based
Conditions: 5 × 10^−6 M
I only need the number, in %, no unit after it.

Recorded results for 2 compounds are shown here.
// sample NCCCCNc1nc(NCCc2ccc(S(N)(=O)=O)cc2)nc(Nc2cccc(F)c2)n1 [Compound IX] , its inhibition at 5 µM was 13.2

// sample NCCCCCNc1nc(NCCc2ccc(S(N)(=O)=O)cc2)nc(Nc2cccc(F)c2)n1 [Compound II] , its inhibition at 5 µM was 45.2

# next compound below
// sample CN(C)S(=O)(=O)c1ccc(CCNc2nc(NCCCCCN)nc(Nc3ccc(F)cc3)n2)cc1 [Compound X] , its inhibition at 5 µM was 19.4

---

System: peripheral blood mononuclear leukocytes (PBML)
Experiment: PBML RNA synthesis ([3H]-uridine)
Format: cell-based
Details: Homo sapiens, Leukocyte; PWM stimulated PBML, 48 hr; read-out: RNA Synthesis PWM
Let's look at some molecules and their measured IC50.
I only need the number, in nM, no unit after it.

// sample NCCCCCNc1nc(NCCc2ccc(S(N)(=O)=O)cc2)nc(Nc2cccc(F)c2)n1 [Compound II] , its IC50 was 1100

New cases:
// sample NCCCCCNc1nc(NCCc2ccc(O)cc2)nc(Nc2cccc(F)c2)n1 [Compound I] , its IC50 was 2200

// sample NCCCCCNc1nc(NCCc2ccc(O)cc2)nc(Nc2ccc(F)cc2)n1 [Compound V] , its IC50 was 4500

---

Target: TNFα (Homo sapiens)
Experiment: TNFα-induced apoptosis in WEHI-13VAR cell line
Type: cell-based
Details: 2 × 10^−5 M
Let's look at some compounds and their measured inhibition at 20 µM.
Param answer (str): number followed by unit.

// sample NCCCCCNc1nc(NCCc2ccc(O)cc2)nc(Nc2cccc(F)c2)n1 [Compound I] , its inhibition at 20 µM was 58.9%

// sample NCCCCCNc1nc(NCCc2ccc(C(N)=O)cc2)nc(Nc2cccc(F)c2)n1 [Compound VI] , its inhibition at 20 µM was 74.1%

# next compound below
// sample NCCCCCNc1nc(NCCc2ccc(S(N)(=O)=O)cc2)nc(Nc2cccc(F)c2)n1 [Compound II] , its inhibition at 20 µM was 83.8%

---

Tested on: peripheral blood mononuclear leukocytes (PBML)
Assay: PBML protein synthesis ([3H]-leucine)
Format: cell-based
Details: Homo sapiens, Leukocyte; con A stimulated PBML, 48 hr; read-out: Protein Synthesis Con A
MEASURED_METRIC: pIC50
Hey, just a heads up that pIC50 is the negative log base 10 of the concentration in molar.

// sample `NCCCCCNc1nc(NCCc2ccc(S(N)(=O)=O)cc2)nc(Nc2cccc(F)c2)n1` , its pIC50 was 5.19

// sample `NCCCCCNc1nc(NCCc2ccc(O)cc2)nc(Nc2cccc(F)c2)n1` , its pIC50 was 5.36

---

Let's look at some compounds and their measured pIC50.
Test system: NHDF (normal human dermal fibroblast)
Assay: MTT cytotoxicity on NHDF
Format: cell-based
Conditions: 24 hr culture, read-out: IC50 of 24-hour culture NHDF
Hey, just a heads up that pIC50 is the negative log base 10 of the concentration in molar.

// sample `NCCCCCNc1nc(NCCc2ccc(O)cc2)nc(Nc2cccc(F)c2)n1` , its pIC50 was 4.25

// sample `NCCCCCNc1nc(NCCc2ccc(O)cc2)nc(Nc2ccc(F)cc2)n1` , its pIC50 was 4.10

// sample `NCCCCCNc1nc(NCCc2ccc(N)cc2)nc(Nc2ccc(F)cc2)n1` , its pIC50 was 4.09

---

Let's look at some compounds and their measured inhibition at 20 µM.
Target: TNFα (Homo sapiens, UniProt P01375)
Test: TNFα-induced apoptosis in WEHI-13VAR cell line
Format: cell-based
Settings: 2 × 10^−5 M
Method: Effect of compounds on TNFα-induced apoptosis was measured by a standard biological assay using WEHI-13VAR cells. […] Only viable cells metabolize MTT to form formazan salt, which is detectable by the measurement of absorbance at 570 nm. […] Optical density was read on a Bio-Tek EL 800 UV microplate reader. […]
Param answer (str): number followed by unit.

// sample `NCCCCNc1nc(NCCc2ccc(S(N)(=O)=O)cc2)nc(Nc2cccc(F)c2)n1` , its inhibition at 20 µM was 46.7%

// sample `CN(C)S(=O)(=O)c1ccc(CCNc2nc(NCCCCCN)nc(Nc3ccc(F)cc3)n2)cc1` , its inhibition at 20 µM was 79.9%

// sample `NCCCCCNc1nc(NCCc2ccc(N)cc2)nc(Nc2ccc(F)cc2)n1` , its inhibition at 20 µM was 31.6%

// sample `NCCCCCNc1nc(NCCc2ccc(O)cc2)nc(Nc2ccc(F)cc2)n1` , its inhibition at 20 µM was 51.9%

// sample `CN(C)S(=O)(=O)c1ccc(CCNc2nc(NCCCCCN)nc(Nc3cccc(F)c3)n2)cc1` , its inhibition at 20 µM was 89.7%

New cases:
// sample `NCCCCCNc1nc(Nc2ccc(S(N)(=O)=O)cc2)nc(Nc2cccc(F)c2)n1` , its inhibition at 20 µM was 48.1%

// sample NCCCCCNc1nc(NCC(O)c2ccc(O)cc2)nc(Nc2ccc(F)cc2)n1 (centres unmarked) , its inhibition at 20 µM was 23.7%

// sample `NCCCCCNc1nc(NCCc2ccc(S(N)(=O)=O)cc2)nc(Nc2ccc(F)cc2)n1` , its inhibition at 20 µM was 99.9%

---

Target: TNFα (Homo sapiens, UniProt P01375)
Test: TNFα-induced apoptosis in WEHI-13VAR cell line
Format: cell-based
Conditions: 1 × 10^−5 M
MEASURED_METRIC: inhibition at 10 µM (%)
I only need the number, in %, no unit after it.

Recorded results for 5 molecules are shown here.
// sample CN(C)S(=O)(=O)c1ccc(CCNc2nc(NCCCCCN)nc(Nc3ccc(F)cc3)n2)cc1 [Compound X] , its inhibition at 10 µM was 44.4

// sample NCCCCCNc1nc(NCCc2ccc(O)cc2)nc(Nc2cccc(F)c2)n1 [Compound I] , its inhibition at 10 µM was 33.1

// sample NCCCCCNc1nc(NCCc2ccc(S(N)(=O)=O)cc2)nc(Nc2ccc(F)cc2)n1 [Compound VII] , its inhibition at 10 µM was 65.8

// sample NCCCCCNc1nc(NCCc2ccc(C(N)=O)cc2)nc(Nc2cccc(F)c2)n1 [Compound VI] , its inhibition at 10 µM was 54.8

// sample NCCCCNc1nc(NCCc2ccc(S(N)(=O)=O)cc2)nc(Nc2cccc(F)c2)n1 [Compound IX] , its inhibition at 10 µM was 29.8

New cases:
// sample NCCCCCNc1nc(Nc2ccc(S(N)(=O)=O)cc2)nc(Nc2cccc(F)c2)n1 [Compound VIII] , its inhibition at 10 µM was 35.6

// sample NCCCCCNc1nc(NCCc2ccc(O)cc2)nc(Nc2ccc(F)cc2)n1 [Compound V] , its inhibition at 10 µM was 22.2

// sample NCCCCCNc1nc(NCCc2ccc(N)cc2)nc(Nc2ccc(F)cc2)n1 [Compound IV] , its inhibition at 10 µM was 13.1

---

Molecular target: TNFα (Homo sapiens)
Assay: TNFα-induced apoptosis in WEHI-13VAR cell line
Assay type: cell-based
Settings: 5 × 10^−6 M
Let's look at some compounds and their measured inhibition at 5 µM.
I only need the number, in %, no unit after it.

// sample NCCCCCNc1nc(NCC(O)c2ccc(O)cc2)nc(Nc2ccc(F)cc2)n1 (stereo not drawn) , its inhibition at 5 µM was 9.9

// sample `NCCCCCNc1nc(NCCc2ccc(S(N)(=O)=O)cc2)nc(Nc2ccc(F)cc2)n1` , its inhibition at 5 µM was 30

// sample `CN(C)S(=O)(=O)c1ccc(CCNc2nc(NCCCCCN)nc(Nc3cccc(F)c3)n2)cc1` , its inhibition at 5 µM was 20.4

---

Let's look at some compounds and their measured pIC50.
System: peripheral blood mononuclear leukocytes (PBML)
Assay: PBML DNA synthesis ([3H]-thymidine)
Assay type: cell-based
Conditions: Homo sapiens, Leukocyte; PWM stimulated PBML, 48 hr; read-out: DNA Synthesis PWM
Hey, just a heads up that pIC50 is the negative log base 10 of the concentration in molar.

Recorded results for 2 compounds are shown here.
// sample `NCCCCCNc1nc(NCCc2ccc(S(N)(=O)=O)cc2)nc(Nc2cccc(F)c2)n1` , its pIC50 was 5.77

// sample `NCCCCCNc1nc(NCCc2ccc(O)cc2)nc(Nc2cccc(F)c2)n1` , its pIC50 was 5.55

# next compound below
// sample `NCCCCCNc1nc(NCCc2ccc(O)cc2)nc(Nc2ccc(F)cc2)n1` , its pIC50 was 5.21
